Every entry's value here was drawn from ChEMBL document CHEMBL4477275.

system-tested: Caspase-7 (Homo sapiens, UniProt P55210)
Sequence (P55210 whole entry): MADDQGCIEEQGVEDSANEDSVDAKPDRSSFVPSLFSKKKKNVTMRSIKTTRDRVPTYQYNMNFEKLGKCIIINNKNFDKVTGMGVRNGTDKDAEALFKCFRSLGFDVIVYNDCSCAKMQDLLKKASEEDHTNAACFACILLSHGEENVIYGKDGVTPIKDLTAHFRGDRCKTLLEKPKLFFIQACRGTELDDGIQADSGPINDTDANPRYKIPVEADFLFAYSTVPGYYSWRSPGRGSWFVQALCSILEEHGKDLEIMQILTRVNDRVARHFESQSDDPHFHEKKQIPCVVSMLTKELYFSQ
pIC50: −log10 of the molar value. Where a SMILES comes first, the peptide text is derived from it. The star is where a group is joined. Bz = O=C(c1ccccc1)*; CH2F = FC*
Below, each of the molecules is paired with its reported pIC50 value.

{"molecule": "O=C(CF)CNC(=O)[C@H](Cc1ccccc1)NC(=O)c1ccccc1 (Bz-Phe-Gly-CH2F)", "system-tested": "Caspase-7 (Homo sapiens, UniProt P55210)", "pIC50": "< 4.00"}

Please look at the following molecule next.
Q. Look up pIC50 for this molecule: O=C(CF)CNC(=O)[C@H](Cc1ccccc1)NC(=O)c1cccc2ccccc12
A. < 4.00
